- Test system: CAL-120
- METHOD DESCRIPTION: normalised viability (% of control), CellTiter-Blue; higher = more viable cells (about 100 = DMSO control)
- CONDITION CONTEXT: 10000 nM; incubation time: 72 h
So basically: is normalised viability under 80%? Then fulfilled. Not under? Then not fulfilled.

| COMPOUND | EXPERIMENTAL SYSTEM | CATEGORY |
| --- | --- | --- |
| CCCC(CCC)C(=O)O | CAL-120 | not fulfilled |
| COc1c(C)cnc(Cn2cnc3c(Cl)nc(N)nc32)c1C | CAL-120 | fulfilled |
| COC1=CC(c2cc3ccccc3[nH]2)=N/C1=C\c1[nH]c(C)cc1C | CAL-120 | fulfilled |
| CN1CCN(c2ccc3nc(-c4c(N)c5c(F)cccc5[nH]c4=O)[nH]c3c2)CC1 | CAL-120 | not fulfilled |
| c1ccc(C2CN3CCSC3=N2)cc1 (stereo unspecified) | CAL-120 | not fulfilled |
| C#Cc1cccc(Nc2ncnc3cc(OC)c(OCCCCCCC(=O)NO)cc23)c1 | CAL-120 | fulfilled |

====

- System: SK-BR-3
- METHOD DESCRIPTION: normalised viability (% of control), CellTiter-Blue; higher = more viable cells (100 = DMSO, 0 = benzethonium chloride kill control)
- CONDITION CONTEXT: incubation time: 72 h
Each entry below carries its recorded normalised viability.

| MOLECULE | EXPERIMENTAL SYSTEM | normalised viability |
| --- | --- | --- |
| c1ccc(C2CN3CCSC3=N2)cc1 (centres undefined) [Tetramisole] (1 nM) | SK-BR-3 | 116% |
| C[C@@]1(C(=O)Nc2ccc(F)nc2)CCCN1c1nc(Nc2cc(C3CC3)n[nH]2)c2cccn2n1 (1 nM) | SK-BR-3 | 101% |
| CCCC(CCC)C(=O)O [Valproic acid] (1 nM) | SK-BR-3 | 103% |
| COc1cccc2c1C(=O)c1c(O)c3c(c(O)c1C2=O)C[C@@](O)(C(C)=O)C[C@@H]3O[C@H]1C[C@H](N)[C@H](O)[C@H](C)O1 [Daunorubicin] (0.1 nM) | SK-BR-3 | 85.2% |
| O=P(O)(NCCCl)NCCCl [Ifosfamide mustard] (1 nM) | SK-BR-3 | 91.8% |
| COC1=CC(c2cc3ccccc3[nH]2)=N/C1=C\c1[nH]c(C)cc1C [Obatoclax] (1 nM) | SK-BR-3 | 74.9% |
| O=C(c1ccc(OCCN2CCCCC2)cc1)c1c(-c2ccc(O)cc2)sc2cc(O)ccc12 [Raloxifene] (1 nM) | SK-BR-3 | 90.8% |
| CN1CCN(c2ccc3nc(-c4c(N)c5c(F)cccc5[nH]c4=O)[nH]c3c2)CC1 [Dovitinib] (1 nM) | SK-BR-3 | 77.6% |
| C#Cc1cccc(Nc2ncnc3cc(OC)c(OCCCCCCC(=O)NO)cc23)c1 [CUDC-101] (1 nM) | SK-BR-3 | 82.3% |

====

- Test system: Hs578T
- METHOD DESCRIPTION: drug sensitivity score (DSS), CellTiter-Glo (DSS (AUC-based score)); higher = stronger drug effect (viability inhibition or cytotoxicity); extreme values may be limits of the assay
- CONDITION CONTEXT: incubation time: 72 h
READOUT NAME: drug sensitivity score

| SMILES STRUCTURE | RECORDED MEASUREMENT |
| --- | --- |
| C#Cc1cccc(Nc2ncnc3cc(OC)c(OCCCCCCC(=O)NO)cc23)c1 | 8.01 |
| CN1CCN(c2ccc3nc(-c4c(N)c5c(F)cccc5[nH]c4=O)[nH]c3c2)CC1 | 0 |
| Cn1c(=O)c(F)c(Nc2ccc(I)cc2F)c2c(=O)n(C[C@@H](O)CO)cnc21 | 0 |

====

- Tested on: SK-BR-3
- METHOD DESCRIPTION: normalised viability (% of control), CellTiter-Blue; higher = more viable cells (about 100 = DMSO control)
- CONDITION CONTEXT: 100 nM; incubation time: 72 h
READOUT NAME: normalised viability (%)

| SMILES STRUCTURE | EXPERIMENTAL SYSTEM | RECORDED MEASUREMENT |
| --- | --- | --- |
| CCS(=O)(=O)c1cccc(-c2cc(C(=O)NC3CCN(C)CC3)c(C)c3[nH]c4ncc(C)cc4c23)c1 | SK-BR-3 | 93.8 |
| CC(C)C[C@H](NC(=O)[C@H](Cc1ccccc1)NC(=O)c1cnccn1)B(O)O | SK-BR-3 | 17.5 |
| CC(C)(C)c1cc(NC(=O)Nc2ccc(-c3cn4c(n3)sc3cc(OCCN5CCOCC5)ccc34)cc2)no1 | SK-BR-3 | 93.5 |
| CC(=O)O[C@H]1C(=O)[C@@]2(C)[C@H]([C@H](OC(=O)c3ccccc3)[C@]3(O)C[C@H](OC(=O)[C@H](O)[C@@H](NC(=O)c4ccccc4)c4ccccc4)C(C)=C1C3(C)C)[C@]1(OC(C)=O)CO[C@@H]1C[C@@H]2O | SK-BR-3 | 13.9 |

====

- System: BT-474
- METHOD DESCRIPTION: drug sensitivity score (DSS), CellTox Green (DSS (AUC-based score)); higher = stronger drug effect (viability inhibition or cytotoxicity); extreme values may be limits of the assay
- CONDITION CONTEXT: incubation time: 72 h

| SMILES STRUCTURE | drug sensitivity score |
| --- | --- |
| FC(F)c1nc2ccccc2n1-c1nc(N2CCOCC2)nc(N2CCOCC2)n1 | 0.64 |
| CC(C)(C)c1cc(NC(=O)Nc2ccc(-c3cn4c(n3)sc3cc(OCCN5CCOCC5)ccc34)cc2)no1 | 0 |
| CCCC(CCC)C(=O)O | 0 |
| COc1cccc2c1C(=O)c1c(O)c3c(c(O)c1C2=O)C[C@@](O)(C(C)=O)C[C@@H]3O[C@H]1C[C@H](N)[C@H](O)[C@H](C)O1 | 0 |
| COC(=O)C[C@](O)(CCCC(C)(C)O)C(=O)O[C@@H]1C(OC)=C[C@]23CCCN2CCc2cc4c(cc2[C@H]13)OCO4 | 0.916 |
| Nc1nccc(-c2c(-c3ccc(F)cc3)ncn2C2CCCCC2)n1 | 0 |
| O=c1[nH]cc(F)c(=O)[nH]1 | 0 |
| CCOc1cc2ncc(C#N)c(Nc3ccc(OCc4ccccn4)c(Cl)c3)c2cc1NC(=O)/C=C/CN(C)C | 4.09 |

====

- Test system: Hs578T
- METHOD DESCRIPTION: drug sensitivity score (DSS), CellTiter-Blue viability (DSS (AUC-based score)); higher = stronger viability inhibition; extreme values may be limits of the assay
- CONDITION CONTEXT: incubation time: 72 h

| MOLECULE | drug sensitivity score |
| --- | --- |
| COC1=CC(c2cc3ccccc3[nH]2)=N/C1=C\c1[nH]c(C)cc1C | 16.6 |
| O=P(O)(NCCCl)NCCCl [Ifosfamide mustard] | 0 |
| COc1cc(Nc2ncc(F)c(Nc3ccc4c(n3)NC(=O)C(C)(C)O4)n2)cc(OC)c1OC | 0 |
| CCOc1cc2ncc(C#N)c(Nc3ccc(OCc4ccccn4)c(Cl)c3)c2cc1NC(=O)/C=C/CN(C)C | 0 |
| CCS(=O)(=O)c1cccc(-c2cc(C(=O)NC3CCN(C)CC3)c(C)c3[nH]c4ncc(C)cc4c23)c1 | 6.31 |
| COc1cccc2c1C(=O)c1c(O)c3c(c(O)c1C2=O)C[C@@](O)(C(C)=O)C[C@@H]3O[C@H]1C[C@H](N)[C@H](O)[C@H](C)O1 | 9.16 |
| C[C@@]1(C(=O)Nc2ccc(F)nc2)CCCN1c1nc(Nc2cc(C3CC3)n[nH]2)c2cccn2n1 | 5.68 |
| CC(C)(C)c1cc(NC(=O)Nc2ccc(-c3cn4c(n3)sc3cc(OCCN5CCOCC5)ccc34)cc2)no1 | 0 |
| CCCC(CCC)C(=O)O | 0 |
| Cn1cnc2c(F)c(Nc3ccc(Br)cc3F)c(C(=O)NOCCO)cc21 | 0 |
| COc1c(C)cnc(Cn2cnc3c(Cl)nc(N)nc32)c1C | 12.9 |

====

- Tested on: Hs578T
- METHOD DESCRIPTION: normalised response (% of control), CellTiter-Glo; higher = more viable cells (100 = DMSO, 0 = benzethonium chloride kill control)
- CONDITION CONTEXT: incubation time: 72 h

| COMPOUND | UNIT OF MEASUREMENT | normalised response |
| --- | --- | --- |
| C[C@@]1(C(=O)Nc2ccc(F)nc2)CCCN1c1nc(Nc2cc(C3CC3)n[nH]2)c2cccn2n1 (100 nM) | % | 92.7 |
| CS(=O)(=O)CCNCc1ccc(-c2ccc3ncnc(Nc4ccc(OCc5cccc(F)c5)c(Cl)c4)c3c2)o1 [Lapatinib] (10 nM) | % | 106 |
| C#Cc1cccc(Nc2ncnc3cc(OC)c(OCCCCCCC(=O)NO)cc23)c1 [CUDC-101] (100 nM) | % | 94.7 |
| COc1cc(Nc2ncc(F)c(Nc3ccc4c(n3)NC(=O)C(C)(C)O4)n2)cc(OC)c1OC [Tamatinib] (100 nM) | % | 102 |
| Cc1cc(C(C)Nc2ccccc2)c2nc(N3CCOCC3)cc(=O)n2c1 (stereo unspecified) [TGX-221] (100 nM) | % | 93.9 |
| COc1ncc(-c2ccc3nccc(-c4ccnnc4)c3c2)cc1NS(=O)(=O)c1ccc(F)cc1F (10 nM) | % | 77.5 |

Data origin, for the record: the supplement of paper PMC4862054
